- Tested on: THRa:RXRa (NR concentration 90 nM, RXRa partner concentration 90 nM)
- protocol-summary: PBM binding z-score (relative to random genomic background probes); higher = stronger binding; sequences stand for … in GC…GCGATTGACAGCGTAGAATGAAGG
measurement-label: PBM binding z-score

INSERT INTO assay_data (entry_sequence, measurement_label, meas_value) VALUES
  ('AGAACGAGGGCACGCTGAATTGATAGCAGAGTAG', 'PBM binding z-score', 1.53),
  ('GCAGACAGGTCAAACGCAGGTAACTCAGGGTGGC', 'PBM binding z-score', 3.23),
  ('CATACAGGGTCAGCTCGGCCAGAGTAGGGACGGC', 'PBM binding z-score', 3.01),
  ('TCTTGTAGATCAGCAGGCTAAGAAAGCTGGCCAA', 'PBM binding z-score', -0.424),
  ('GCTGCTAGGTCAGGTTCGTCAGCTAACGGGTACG', 'PBM binding z-score', 1.94),
  ('CCGACTGGGGCAAGGTTACGATAACGCACAGCCA', 'PBM binding z-score', 1.28),
  ('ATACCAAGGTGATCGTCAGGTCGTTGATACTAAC', 'PBM binding z-score', 2.98),
  ('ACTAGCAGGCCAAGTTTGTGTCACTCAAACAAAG', 'PBM binding z-score', -0.0341),
  ('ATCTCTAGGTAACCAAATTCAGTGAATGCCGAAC', 'PBM binding z-score', 0.659),
  ('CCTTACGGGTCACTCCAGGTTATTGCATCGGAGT', 'PBM binding z-score', 4.94),
  ('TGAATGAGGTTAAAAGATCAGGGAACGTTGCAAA', 'PBM binding z-score', 1.83),
  ('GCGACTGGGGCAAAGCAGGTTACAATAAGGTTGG', 'PBM binding z-score', 3.11),
  ('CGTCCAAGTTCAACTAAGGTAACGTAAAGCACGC', 'PBM binding z-score', 5.06),
  ('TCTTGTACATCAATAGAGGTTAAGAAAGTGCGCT', 'PBM binding z-score', 1.52),
  ('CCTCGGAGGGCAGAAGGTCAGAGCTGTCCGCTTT', 'PBM binding z-score', 1.47),
  ('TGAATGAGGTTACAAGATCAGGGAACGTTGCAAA', 'PBM binding z-score', 2.2),
  ('ATATGTAGGTTAGCTGGGGTCAGTCAGACTAGGC', 'PBM binding z-score', 5.02),
  ('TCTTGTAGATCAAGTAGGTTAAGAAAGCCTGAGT', 'PBM binding z-score', 0.372),
  ('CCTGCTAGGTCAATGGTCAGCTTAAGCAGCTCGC', 'PBM binding z-score', 2.31),
  ('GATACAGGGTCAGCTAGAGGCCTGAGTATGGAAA', 'PBM binding z-score', 2.49),
  ('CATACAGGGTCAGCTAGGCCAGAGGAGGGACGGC', 'PBM binding z-score', 2.75),
  ('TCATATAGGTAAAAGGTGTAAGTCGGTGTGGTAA', 'PBM binding z-score', 0.0897),
  ('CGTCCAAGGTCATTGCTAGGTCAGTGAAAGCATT', 'PBM binding z-score', 4.38),
  ('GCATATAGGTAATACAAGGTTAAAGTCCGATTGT', 'PBM binding z-score', 4.03),
  ('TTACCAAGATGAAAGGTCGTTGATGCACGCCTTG', 'PBM binding z-score', 1.27),
  ('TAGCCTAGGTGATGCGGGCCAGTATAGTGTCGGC', 'PBM binding z-score', -0.285);
